Hi there, I'd appreciate the recorded IC50 (neutralization) for every entry that follows.
Target: HIV-1 Env of isolate MGRM-F1-006 (subtype F) (HIV-1)
Test: cell-based or functional assay

BINDER | IC50 (neutralization)
PGT-130 (antibody, V domains shown) VH: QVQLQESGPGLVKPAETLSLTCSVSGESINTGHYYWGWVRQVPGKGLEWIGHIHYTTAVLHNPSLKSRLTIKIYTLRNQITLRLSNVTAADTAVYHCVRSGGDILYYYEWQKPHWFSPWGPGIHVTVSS VL: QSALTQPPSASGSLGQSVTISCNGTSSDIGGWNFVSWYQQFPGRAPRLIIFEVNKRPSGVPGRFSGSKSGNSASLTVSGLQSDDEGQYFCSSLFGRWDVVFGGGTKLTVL | > 50 µg/mL
PGT-135 (antibody, V domains shown) VH: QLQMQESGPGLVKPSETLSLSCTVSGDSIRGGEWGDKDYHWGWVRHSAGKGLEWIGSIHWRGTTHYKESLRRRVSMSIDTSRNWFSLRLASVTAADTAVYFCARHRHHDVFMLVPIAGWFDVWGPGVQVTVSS VL: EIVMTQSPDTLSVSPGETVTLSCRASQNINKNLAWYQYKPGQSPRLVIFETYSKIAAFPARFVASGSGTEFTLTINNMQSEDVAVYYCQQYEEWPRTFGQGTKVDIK | > 50 µg/mL

Proceeding to the next binder to report its IC50 (neutralization).
Prompt: Please look up its IC50 (neutralization): PGT-125 (antibody, V domains shown) VH: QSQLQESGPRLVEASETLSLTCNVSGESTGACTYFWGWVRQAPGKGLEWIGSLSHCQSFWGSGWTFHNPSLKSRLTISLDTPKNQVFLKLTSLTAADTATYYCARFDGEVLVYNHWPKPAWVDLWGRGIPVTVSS VL: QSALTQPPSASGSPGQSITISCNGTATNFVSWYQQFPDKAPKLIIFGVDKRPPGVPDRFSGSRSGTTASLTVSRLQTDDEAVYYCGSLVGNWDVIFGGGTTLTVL
Completion: 0.361 µg/mL
